measuredOn: Human Fc (human)
measurementNotes: ELISA, negative control
resultType: optical density (OD)
Report as a plain number; the unit OD is understood.

# binder, unitsSymbol, optical density
data = [
    ("374_C03 (antibody, V domains shown) VH: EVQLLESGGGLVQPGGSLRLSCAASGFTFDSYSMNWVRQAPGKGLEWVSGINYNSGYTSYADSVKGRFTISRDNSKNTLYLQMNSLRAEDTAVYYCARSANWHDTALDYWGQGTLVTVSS VL: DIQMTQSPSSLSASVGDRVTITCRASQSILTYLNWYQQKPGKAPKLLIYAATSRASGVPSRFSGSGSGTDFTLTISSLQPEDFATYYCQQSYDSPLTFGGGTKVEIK", "OD", 0.208),
    ("367_H11 (antibody, V domains shown) VH: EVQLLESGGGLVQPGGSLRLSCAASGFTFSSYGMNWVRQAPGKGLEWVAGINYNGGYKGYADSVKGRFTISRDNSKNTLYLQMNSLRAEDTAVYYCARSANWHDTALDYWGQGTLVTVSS VL: DIQMTQSPSSLSASVGDRVTITCRASQSIISYVNWYQQKPGKAPKLVIYAATSRASGVPSRFSGSGSGTDFTLTISSLQPEDFATYYCQQSYNSPLTFGGGTKVEIK", "OD", 0.323),
]

Entry 371_D09 (antibody, V domains shown) VH: EVQLLESGGGLVQPGGSLRLSCAASGFTFSSYSMNWVRQAPGKGLEWVSNINYNSGYTGYADSVKGRFTISRDNSKNTLYLQMNSLRAEDTAVYYCARSANWHDTALDYWGQGTLVTVSS VL: DIQMTQSPSSLSASVGDRVTITCRASQSILTYLNWYQQKPGKAPKLVIYAATSRASGVPSRFSGSGSGTDFTLTISSLQPEDFATYYCQQSYNNPLTFGGGTKVEIK : reported optical density = ? 0.268
